Reference for the values: PubChem BioAssay (NCI)

Test system: NCI/ADR-RES ovarian
Assay: NCI tumour cell line growth inhibition, 48 h
metricName: TGI

compound	measuredResult
C#CC(O)/C=C/C(O)CCCC(O)CC#CC(O)C#CCCCCC(O)/C=C/CCCCCC(=O)CCCCCCCCCCCCCC(O)C(O)C#CC(=O)O (centres undefined)	> 25 µM

Challenge: Data request, read-out TGI, for COc1ccc(/C=C/C(=O)OC2CC34CCNC35CC(OC5(OC)C2OC)c2ccc(OC)c(O)c24)cc1O (centres undefined)
Response given: > 100 µM

Challenge: Item under review: `CCCCNC(=O)CC1=C(C)/C(=C/c2[nH]c(-c3ccc[nH]3)cc2OC)N=C1C` . Reported TGI?
Response given: 9.89 µM

Challenge: Fill blank: measured TGI of the compound `C=C(Cl)[C@](Cl)(CBr)CC[C@@H](Br)C(C)(C)Cl` is ____.
Response given: 4.32 µM

Challenge: Sample `CN(C)C/C=C/C(=O)Nc1ccc(C(=O)Nc2cccc(Nc3ncc(Cl)c(-c4c[nH]c5ccccc45)n3)c2)cc1` — what was its TGI?
Response given: > 100 µM

Challenge: What value of TGI has been recorded for this entry: C=C(C)C1Cc2c(cc3c(c2O)c(=O)c2ccccc2n3C)O1 (centres undefined)
Response given: 8.19 µM

----------
Parameter: TGI. Scope: all listed entries.
System: HCT-15 colon
Test: NCI tumour cell line growth inhibition, 48 h

Recorded TGI, per entry:
compound	measuredResult
Cc1cc2c(C(C)C)c(O)c(O)c(/C=N/O)c2c(O)c1-c1c(C)cc2c(C(C)C)c(O)c(O)c(/C=N/O)c2c1O	13.4 µM
CCOP(=O)(OCC)C(Cc1c[nH]c2ccccc12)C(=O)O (configuration not stated)	> 100 µM

Challenge: Tell me the measured TGI of [N-]=[N+]=NC1(Cc2ccccc2)C(=O)Nc2ccccc2C1=O (configuration not stated) , please.
Response given: > 100 µM

Challenge: Record request: TGI value, item `CC(C)(Oc1cccc(N2CCC[C@@H](C(=O)N(Cc3ccc(-c4cn[nH]c4)cc3)C3CC3)C2)c1)C(=O)N1CCNCC1`
Response given: 28.9 µM

----------
Test system: HT29 colon
Test: NCI tumour cell line growth inhibition, 48 h; in the data active = GI50 below about 0.43 µM; inactive = the rest
Would you mind answering with one of these outcomes? yes = active, no = inactive

Below are worked cases with known answers.
>>> print(df.to_string())
                                   compound  targetdesc  grouplabel
0  Cc1ncnc2c1ccn2[C@@H]1C[C@H](Oc2cc(C(F)F)c(F)c3c2CNCC3)[C@@H](O)[C@H]1O  HT29 colon          no
1  CN(C)C/C=C/C(=O)Nc1ccc(C(=O)Nc2cccc(Nc3ncc(Cl)c(-c4c[nH]c5ccccc45)n3)c2)cc1  HT29 colon         yes
2  CC(=O)NC(CCc1ccc(Cl)c(Cl)c1)c1cccc(O)c(=O)c1 (centres undefined)  HT29 colon          no

For the next question, use this compound.
Challenge: Outcome? `CCN(CC)CCOc1ccc(/C(=C(\C)Cc2ccc(OC)cc2)c2ccc(O)cc2)cc1`
Response given: no

----------
Tested on: RXF 393 renal
Assay: NCI tumour cell line growth inhibition, 48 h
metricName: TGI

Consider the following illustrative entries.
compound	TGI
CSc1ncc2c(C#N)c3n(C)c4ccccc4n3c(=O)c2n1	> 100 µM
c1ccc(-c2sc(-c3ccccc3)c3c2C(c2ccccc2)c2c(-c4ccccc4)sc(-c4ccccc4)c2C3c2ccccc2)cc1 (centres undefined)	> 100 µM
COC(=O)C1C(=O)C(C(=O)OC)C2CCC1N2C (centres undefined)	> 100 µM
CC(=O)[CH-]C(=O)c1ccccc1.CC(=O)[CH-]C(=O)c1ccccc1.CC[C@H](CCC(C)[C@H]1CCC2[C@@H]3CC=C4C[C@@H]([O-])CC[C@]4(C)C3CC[C@@]21C)C(C)C.CC[C@H](CCC(C)[C@H]1CCC2[C@@H]3CC=C4C[C@@H]([O-])CC[C@]4(C)C3CC[C@@]21C)C(C)C.Cl.[Ti+4] (some centres undefined)	> 25 µM
COC(=O)c1ccccc1C1CN=NC12Cc1cc3c(cc1C2=O)CCC3 (centres undefined)	> 100 µM

Challenge: Using the record for `C#CCNCC(=O)O` , report its TGI.
Response given: > 100 µM

Challenge: Which measured TGI value corresponds to `CCN1CCCCCCCCCC(=N/O)/C(=N\O)C1` ?
Response given: > 100 µM

Challenge: Using the record for `NC(=O)NC(=O)Nc1ccc(Br)cc1` , report its TGI.
Response given: > 100 µM

Challenge: // lookup TGI for `CN1CCN(CCCCCOc2cc(O)c3c(=O)cc(-c4ccccc4)oc3c2)CC1`
Response given: 5.97 µM
